target: CDK5 CDK5R1 p35 (human) (UniProt Q00535+Q15078)
testDescription: radiometric filter-binding kinase assay, Kinase HotSpot
measurementSetup: compound 0.5 µM; ATP 10 µM
Label scheme for residual activity: lower than 90% is Not fulfilled, 90% and above is Fulfilled.

>>> grouplabel("COc1cc2ncnc(Nc3ccc(O)c(Br)c3)c2cc1OC")
"Fulfilled"
>>> grouplabel("CCc1nc(-c2ccc(OC)cc2)[nH]c1-c1ccncc1")
"Fulfilled"
>>> grouplabel("Cc1cc(Nc2nc(-c3ccccc3)nc3ccccc23)n[nH]1")
"Not fulfilled"
>>> grouplabel("CCOc1cc2ncnc(Nc3cccc(Br)c3)c2cc1OCC")
"Fulfilled"
>>> grouplabel("c1ccc(-c2cnc(Nc3ccc(OCCN4CCCC4)cc3)s2)cc1")
"Not fulfilled"

* * *

Listing: residual activity of selected compounds
target: CDK2 CCNE1 (human) (UniProt P24941+P24864)
Sequence (P24864 whole entry, looked up, other chains not shown): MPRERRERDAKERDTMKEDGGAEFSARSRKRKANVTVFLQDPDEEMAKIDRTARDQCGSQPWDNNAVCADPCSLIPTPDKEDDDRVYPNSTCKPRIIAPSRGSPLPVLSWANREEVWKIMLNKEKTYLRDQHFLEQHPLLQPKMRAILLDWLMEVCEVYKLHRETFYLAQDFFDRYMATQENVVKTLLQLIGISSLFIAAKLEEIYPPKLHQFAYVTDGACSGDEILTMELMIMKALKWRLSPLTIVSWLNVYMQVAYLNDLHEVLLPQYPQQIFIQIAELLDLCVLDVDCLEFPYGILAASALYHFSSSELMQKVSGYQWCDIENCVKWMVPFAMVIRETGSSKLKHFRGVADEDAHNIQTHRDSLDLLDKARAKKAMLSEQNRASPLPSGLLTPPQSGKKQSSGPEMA
testDescription: radiometric filter-binding kinase assay, Kinase HotSpot
measurementSetup: compound 0.5 µM; ATP 10 µM
measurementKind: residual activity (%)

>>> valuereported("CCc1nc(-c2ccc(OC)cc2)[nH]c1-c1ccncc1")
93.7
>>> valuereported("O=C(O)c1ccc2c3c1cccc3c(=O)n1c3ccccc3nc21")
90.9
>>> valuereported("CC(C)(C)n1nc(Cc2cccc3ccccc23)c2c(N)ncnc21")
89.6
>>> valuereported("Cc1cc(Nc2nc(-c3ccccc3)nc3ccccc23)n[nH]1")
75.4
>>> valuereported("O=C(c1ccccc1)c1ccc(N2CCOCC2)cc1O")
99.6
>>> valuereported("COc1cc2c(cc1OC)-c1[nH]nc(Nc3cccc(F)c3)c1C2")
88.6
>>> valuereported("CCOc1cc2ncnc(Nc3cccc(Br)c3)c2cc1OCC")
94.4
>>> valuereported("COc1cc2c(N3CCN(C(=O)Nc4ccc(OC(C)C)cc4)CC3)ncnc2cc1OCCCN1CCCCC1")
96.7
>>> valuereported("Nc1ncnc2c1cnn2-c1ccccc1")
93.9
>>> valuereported("COc1cccc(-c2cc(=O)c3ccccc3o2)c1N")
95.3
>>> valuereported("O=c1cc(N2CCOCC2)oc2c(-c3ccccc3)cccc12")
93
>>> valuereported("O=c1c(-c2ccc(F)cc2)c(-c2ccncc2)[nH]n1-c1ccc(Cl)cc1")
89.1
>>> valuereported("N#Cc1c(NC(=O)c2cccc3ccccc23)sc2c1CCCC2")
89.1
>>> valuereported("O=c1c2ccccc2[nH]c(=S)n1CCN1CCC(=C(c2ccc(F)cc2)c2ccc(F)cc2)CC1")
97.3
>>> valuereported("O=C1NC(=O)c2cc(Nc3ccc(F)cc3)c(Nc3ccc(F)cc3)cc21")
94.3

* * *

target: CDC42BPA (human) (UniProt Q5VT25)
Sequence (Q5VT25 whole entry, looked up): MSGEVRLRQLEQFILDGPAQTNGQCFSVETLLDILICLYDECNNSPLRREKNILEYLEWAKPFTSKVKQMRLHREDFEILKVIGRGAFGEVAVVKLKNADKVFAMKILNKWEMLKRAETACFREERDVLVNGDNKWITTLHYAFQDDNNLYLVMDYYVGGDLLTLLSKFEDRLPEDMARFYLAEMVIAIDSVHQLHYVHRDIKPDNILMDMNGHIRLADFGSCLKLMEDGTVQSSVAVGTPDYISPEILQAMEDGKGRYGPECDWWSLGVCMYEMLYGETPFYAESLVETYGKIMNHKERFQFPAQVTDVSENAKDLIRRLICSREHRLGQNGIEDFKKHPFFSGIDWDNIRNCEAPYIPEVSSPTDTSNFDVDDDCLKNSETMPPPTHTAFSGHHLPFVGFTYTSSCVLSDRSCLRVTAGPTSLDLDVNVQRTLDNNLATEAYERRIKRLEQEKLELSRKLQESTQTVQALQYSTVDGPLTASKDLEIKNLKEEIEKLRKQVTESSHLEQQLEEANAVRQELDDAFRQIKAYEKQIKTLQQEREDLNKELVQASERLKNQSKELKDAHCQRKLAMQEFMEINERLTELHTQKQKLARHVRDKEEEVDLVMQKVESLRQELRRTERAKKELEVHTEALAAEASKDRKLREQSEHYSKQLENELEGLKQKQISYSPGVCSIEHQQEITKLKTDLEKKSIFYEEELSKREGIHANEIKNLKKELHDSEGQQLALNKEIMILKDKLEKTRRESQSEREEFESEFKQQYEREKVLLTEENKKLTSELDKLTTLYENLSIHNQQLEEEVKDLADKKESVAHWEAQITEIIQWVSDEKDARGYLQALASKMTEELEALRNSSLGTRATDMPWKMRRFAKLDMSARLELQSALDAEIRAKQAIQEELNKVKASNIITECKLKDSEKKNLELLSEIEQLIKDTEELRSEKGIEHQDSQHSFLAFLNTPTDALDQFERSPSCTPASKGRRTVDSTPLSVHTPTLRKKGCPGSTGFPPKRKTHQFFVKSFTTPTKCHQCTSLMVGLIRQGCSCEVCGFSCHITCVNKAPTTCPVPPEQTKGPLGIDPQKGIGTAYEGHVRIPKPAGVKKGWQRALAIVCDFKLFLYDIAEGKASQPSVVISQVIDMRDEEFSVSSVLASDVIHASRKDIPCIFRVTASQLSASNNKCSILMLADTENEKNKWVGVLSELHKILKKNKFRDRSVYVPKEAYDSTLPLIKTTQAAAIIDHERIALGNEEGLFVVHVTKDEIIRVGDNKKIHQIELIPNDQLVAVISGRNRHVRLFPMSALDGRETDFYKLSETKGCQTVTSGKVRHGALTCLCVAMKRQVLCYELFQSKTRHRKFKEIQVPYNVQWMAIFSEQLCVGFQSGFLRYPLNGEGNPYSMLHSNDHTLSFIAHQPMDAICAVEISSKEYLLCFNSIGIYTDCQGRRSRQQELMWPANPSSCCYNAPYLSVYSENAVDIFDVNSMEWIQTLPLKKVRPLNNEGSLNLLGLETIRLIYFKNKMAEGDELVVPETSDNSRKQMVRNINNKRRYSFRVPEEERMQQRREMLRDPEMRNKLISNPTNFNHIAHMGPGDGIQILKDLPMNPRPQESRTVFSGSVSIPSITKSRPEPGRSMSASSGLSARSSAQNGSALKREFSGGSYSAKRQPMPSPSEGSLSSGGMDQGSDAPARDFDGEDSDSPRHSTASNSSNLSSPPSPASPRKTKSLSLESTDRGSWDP
testDescription: radiometric filter-binding kinase assay, Kinase HotSpot
measurementSetup: compound 0.5 µM; ATP 10 µM
measurementKind: residual activity (%)

>>> valuereported("O=C1NC(=O)c2c1c1c3ccccc3[nH]c1c1[nH]c3cc(Br)ccc3c21")
97.5
>>> valuereported("CCOc1cc2ncnc(Nc3cccc(Br)c3)c2cc1OCC")
85.4
>>> valuereported("COc1cc2ncnc(Nc3ccc(O)c(Br)c3)c2cc1OC")
96.9
>>> valuereported("O=C1NC(=O)c2cc(Nc3ccc(F)cc3)c(Nc3ccc(F)cc3)cc21")
92.3
>>> valuereported("COc1cc2c(cc1OC)-c1[nH]nc(Nc3cccc(F)c3)c1C2")
119
>>> valuereported("N/C(=N\\N=C/c1ccc(-c2cccc([N+](=O)[O-])c2)o1)N[N+](=O)[O-]")
87.3
>>> valuereported("CCc1nc(-c2ccc(OC)cc2)[nH]c1-c1ccncc1")
96.3
>>> valuereported("N#Cc1c(NC(=O)c2cccc3ccccc23)sc2c1CCCC2")
103
>>> valuereported("O=c1c(-c2ccc(F)cc2)c(-c2ccncc2)[nH]n1-c1ccc(Cl)cc1")
98
>>> valuereported("O=C(c1ccccc1)c1ccc(N2CCOCC2)cc1O")
95.5
>>> valuereported("Cc1cc(Nc2nc(-c3ccccc3)nc3ccccc23)n[nH]1")
108
>>> valuereported("O=C(O)c1ccc2c3c1cccc3c(=O)n1c3ccccc3nc21")
96.1
>>> valuereported("COc1cc2c(Nc3ccc(Br)cc3F)ncnc2cc1OCC1CCN(C)CC1")
83.7
>>> valuereported("COc1cccc(-c2cc(=O)c3ccccc3o2)c1N")
98.5
>>> valuereported("O=S(=O)(NCCNC/C=C/c1ccc(Br)cc1)c1cccc2cnccc12")
97.5
>>> valuereported("FC(F)(F)c1ccc(/C=C/c2nc(COc3ccc(CCCCn4ccnn4)cc3)co2)cc1")
103
>>> valuereported("c1ccc(-c2cnc(Nc3ccc(OCCN4CCCC4)cc3)s2)cc1")
91
>>> valuereported("COc1cc2c(N3CCN(C(=O)Nc4ccc(OC(C)C)cc4)CC3)ncnc2cc1OCCCN1CCCCC1")
106
>>> valuereported("O=c1c2ccccc2[nH]c(=S)n1CCN1CCC(=C(c2ccc(F)cc2)c2ccc(F)cc2)CC1")
97.7
>>> valuereported("Nc1ncnc2c1cnn2-c1ccccc1")
90.2
>>> valuereported("O=c1cc(N2CCOCC2)oc2c(-c3ccccc3)cccc12")
104
>>> valuereported("N#CCCc1ccc2c(c1)-c1[nH]c3ccc([N+](=O)[O-])cc3c1CC(=O)N2")
73.1

* * *

target: CHUK (human) (UniProt O15111)
Sequence (O15111 whole entry, looked up): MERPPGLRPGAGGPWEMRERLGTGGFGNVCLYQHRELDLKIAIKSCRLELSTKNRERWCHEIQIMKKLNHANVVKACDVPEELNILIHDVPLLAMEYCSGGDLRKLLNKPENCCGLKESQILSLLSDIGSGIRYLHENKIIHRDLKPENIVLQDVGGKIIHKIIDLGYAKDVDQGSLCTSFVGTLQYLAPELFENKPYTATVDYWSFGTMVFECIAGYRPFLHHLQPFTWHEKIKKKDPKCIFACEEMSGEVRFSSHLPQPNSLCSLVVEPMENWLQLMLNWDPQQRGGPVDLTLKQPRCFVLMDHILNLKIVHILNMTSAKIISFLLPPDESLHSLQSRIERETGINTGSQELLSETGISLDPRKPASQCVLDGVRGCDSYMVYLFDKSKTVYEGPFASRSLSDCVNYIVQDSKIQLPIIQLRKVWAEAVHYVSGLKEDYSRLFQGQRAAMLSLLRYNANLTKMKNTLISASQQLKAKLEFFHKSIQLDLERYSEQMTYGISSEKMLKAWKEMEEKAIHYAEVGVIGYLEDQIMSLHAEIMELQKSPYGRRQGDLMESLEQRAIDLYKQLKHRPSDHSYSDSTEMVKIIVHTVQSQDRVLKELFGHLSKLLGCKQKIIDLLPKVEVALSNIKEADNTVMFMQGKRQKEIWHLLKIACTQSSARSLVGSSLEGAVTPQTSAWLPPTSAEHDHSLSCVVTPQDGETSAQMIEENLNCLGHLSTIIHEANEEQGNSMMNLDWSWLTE
testDescription: radiometric filter-binding kinase assay, Kinase HotSpot
measurementSetup: compound 0.5 µM; ATP 10 µM
Listing: residual activity of selected compounds
measurementKind: residual activity

>>> valuereported("FC(F)(F)c1ccc(/C=C/c2nc(COc3ccc(CCCCn4ccnn4)cc3)co2)cc1")
"96.8%"
>>> valuereported("O=c1[nH]c2ccccc2n1C1CCN(Cc2ccc(-c3nc4cc5[nH]cnc5cc4nc3-c3ccccc3)cc2)CC1")
"90.1%"
>>> valuereported("Cc1cc(Nc2nc(-c3ccccc3)nc3ccccc23)n[nH]1")
"96.5%"
>>> valuereported("N#CCCc1ccc2c(c1)-c1[nH]c3ccc([N+](=O)[O-])cc3c1CC(=O)N2")
"105%"

* * *

target: STK10 (human) (UniProt O94804)
Sequence (O94804 whole entry, looked up): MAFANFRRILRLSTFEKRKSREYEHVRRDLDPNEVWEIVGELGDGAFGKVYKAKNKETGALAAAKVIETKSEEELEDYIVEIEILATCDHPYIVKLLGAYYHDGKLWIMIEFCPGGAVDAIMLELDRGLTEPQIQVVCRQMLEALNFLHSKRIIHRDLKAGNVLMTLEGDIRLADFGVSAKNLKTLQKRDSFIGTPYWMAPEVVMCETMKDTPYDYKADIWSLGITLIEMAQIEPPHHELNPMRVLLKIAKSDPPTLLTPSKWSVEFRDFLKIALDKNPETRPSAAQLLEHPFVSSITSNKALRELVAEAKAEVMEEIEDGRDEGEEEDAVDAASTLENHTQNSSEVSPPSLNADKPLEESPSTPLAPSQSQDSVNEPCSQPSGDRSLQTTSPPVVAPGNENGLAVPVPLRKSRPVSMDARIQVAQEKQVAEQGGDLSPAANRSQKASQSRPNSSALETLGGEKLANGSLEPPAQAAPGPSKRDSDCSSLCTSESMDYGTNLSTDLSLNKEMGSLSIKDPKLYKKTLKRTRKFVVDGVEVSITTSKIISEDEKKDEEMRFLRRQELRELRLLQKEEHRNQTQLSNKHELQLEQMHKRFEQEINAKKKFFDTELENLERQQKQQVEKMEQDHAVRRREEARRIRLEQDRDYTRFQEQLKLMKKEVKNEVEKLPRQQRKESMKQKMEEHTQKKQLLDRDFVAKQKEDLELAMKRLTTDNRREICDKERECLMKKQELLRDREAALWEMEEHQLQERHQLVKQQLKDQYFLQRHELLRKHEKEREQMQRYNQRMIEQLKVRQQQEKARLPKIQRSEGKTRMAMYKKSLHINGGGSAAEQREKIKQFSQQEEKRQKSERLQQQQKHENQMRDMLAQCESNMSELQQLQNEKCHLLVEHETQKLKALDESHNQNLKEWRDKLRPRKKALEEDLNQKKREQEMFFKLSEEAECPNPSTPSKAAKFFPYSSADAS
testDescription: radiometric filter-binding kinase assay, Kinase HotSpot
measurementSetup: compound 0.5 µM; ATP 10 µM
Listing: residual activity of selected molecules
measurementKind: residual activity (%)

>>> valuereported("O=C(c1ccccc1)c1ccc(N2CCOCC2)cc1O")
97.9
>>> valuereported("O=C1NC(=O)c2cc(Nc3ccc(F)cc3)c(Nc3ccc(F)cc3)cc21")
79.2
>>> valuereported("FC(F)(F)c1ccc(/C=C/c2nc(COc3ccc(CCCCn4ccnn4)cc3)co2)cc1")
92.6
>>> valuereported("COc1cccc(-c2cc(=O)c3ccccc3o2)c1N")
90.4
>>> valuereported("O=c1cc(N2CCOCC2)oc2c(-c3ccccc3)cccc12")
97.1
>>> valuereported("O=c1c(-c2ccc(F)cc2)c(-c2ccncc2)[nH]n1-c1ccc(Cl)cc1")
81.9
>>> valuereported("COc1cc2c(N3CCN(C(=O)Nc4ccc(OC(C)C)cc4)CC3)ncnc2cc1OCCCN1CCCCC1")
95
>>> valuereported("O=c1c2ccccc2[nH]c(=S)n1CCN1CCC(=C(c2ccc(F)cc2)c2ccc(F)cc2)CC1")
96.2
>>> valuereported("O=C1NC(=O)c2c1c1c3ccccc3[nH]c1c1[nH]c3cc(Br)ccc3c21")
84.6
>>> valuereported("CCOc1cc2ncnc(Nc3cccc(Br)c3)c2cc1OCC")
30.5
>>> valuereported("O=c1[nH]c2ccccc2n1C1CCN(Cc2ccc(-c3nc4cc5[nH]cnc5cc4nc3-c3ccccc3)cc2)CC1")
92.6
>>> valuereported("O=C(O)c1ccc2c3c1cccc3c(=O)n1c3ccccc3nc21")
88.6
>>> valuereported("CCc1nc(-c2ccc(OC)cc2)[nH]c1-c1ccncc1")
96.8
>>> valuereported("Cn1cc(/C=C2\\C(=O)Nc3ccc(S(N)(=O)=O)cc32)c2ccccc21")
17
>>> valuereported("O=S(=O)(NCCNC/C=C/c1ccc(Br)cc1)c1cccc2cnccc12")
89.2
>>> valuereported("N#C/C(=C1/Nc2ccccc2S1)c1ccnc(NCCc2cccnc2)n1")
86.3
>>> valuereported("COc1cc2c(cc1OC)-c1[nH]nc(Nc3cccc(F)c3)c1C2")
89
>>> valuereported("N/C(=N\\N=C/c1ccc(-c2cccc([N+](=O)[O-])c2)o1)N[N+](=O)[O-]")
99.6
>>> valuereported("CCCCc1c(-c2ccc(O)cc2)[nH]c2nccnc12")
82.8
>>> valuereported("N#CCCc1ccc2c(c1)-c1[nH]c3ccc([N+](=O)[O-])cc3c1CC(=O)N2")
74.1
>>> valuereported("N#Cc1c(NC(=O)c2cccc3ccccc23)sc2c1CCCC2")
97.7
>>> valuereported("COc1cc2c(Nc3ccc(Br)cc3F)ncnc2cc1OCC1CCN(C)CC1")
21.3
